- Target Desc: hCA IX (Homo sapiens, UniProt Q16790)
- Construct: made in house
- Measurement Description: stopped-flow CO2 hydrase assay, hCA IX
- Assay type: biochemical
- Applied Conditions: hCA IX over hCA I
Classification field: 1 = Selectivity index (SI) I/IX at or over 1000; -1 = Selectivity index (SI) I/IX under 1000.

// inclusive: Selectivity index (SI) I/IX at least 1000? input: COc1ccc2cc3[n+](cc2c1OCCCCn1cc(COc2ccc(S(N)(=O)=O)cc2)nn1)CCc1cc2c(cc1-3)OCO2 [Compound 31] 1

Assess whether reported Selectivity index (SI) I/IX for COc1ccc2cc3[n+](cc2c1OCc1cn(CCCCCOc2ccc4ccc(=O)oc4c2)nn1)CCc1cc2c(cc1-3)OCO2 [Compound 44] sits at 1000 or higher. 1

Identify whether the reported Selectivity index (SI) I/IX of the following compound is 1000 or greater: COc1ccc2cc3[n+](cc2c1OCCCCCn1cc(COc2ccc(S(N)(=O)=O)cc2)nn1)CCc1cc2c(cc1-3)OCO2 [Compound 33] -1

State whether the measured Selectivity index (SI) I/IX reaches 1000, counting equality as reaching it, for COc1ccc2cc3[n+](cc2c1OCCn1cc(-c2ccc(S(N)(=O)=O)cc2)nn1)CCc1cc2c(cc1-3)OCO2 [Compound 26] -1

Quick check: does COc1ccc2cc3[n+](cc2c1OCCCS(N)(=O)=O)CCc1cc2c(cc1-3)OCO2 [Compound 47] have Selectivity index (SI) I/IX greater than or equal to 1000? -1

// inclusive: Selectivity index (SI) I/IX at least 1000? input: COc1ccc2cc3[n+](cc2c1OCCCn1cc(COc2ccc(S(N)(=O)=O)cc2)nn1)CCc1cc2c(cc1-3)OCO2 [Compound 29] 1

# check: Selectivity index (SI) I/IX of COc1ccc2cc3[n+](cc2c1OCCn1cc(COc2ccc(S(N)(=O)=O)cc2)nn1)CCc1cc2c(cc1-3)OCO2 [Compound 27] is greater than or equal to 1000 1

# bool: Selectivity index (SI) I/IX of COc1ccc2cc3[n+](cc2c1OCc1cn(-c2cccc(S(N)(=O)=O)c2)nn1)CCc1cc2c(cc1-3)OCO2 [Compound 40] >= 1000 -1

---

- System: c-Kit1
- Measurement Description: CD melting experiments, c-Kit1 GQ
- Format: binding
- Applied Conditions: 2 molar equiv compound, T1/2 of DNA alone 55.0 °C
Value Type: ΔT1/2 c-Kit1 (°C)
Unit °C implied. Number only.

Tell me ΔT1/2 c-Kit1 reported for COc1ccc2cc3[n+](cc2c1OCCCn1cc(CCOc2ccc4ccc(=O)oc4c2)nn1)CCc1cc2c(cc1-3)OCO2 [Compound 35] 18.5

Note down ΔT1/2 c-Kit1 recorded for COc1ccc2cc3[n+](cc2c1OCCCn1cc(COc2ccc(S(N)(=O)=O)cc2)nn1)CCc1cc2c(cc1-3)OCO2 [Compound 29] 16.0

Indicate the recorded ΔT1/2 c-Kit1 value for this molecule: COc1ccc2cc3[n+](cc2c1OCc1cn(-c2ccc(S(N)(=O)=O)cc2)nn1)CCc1cc2c(cc1-3)OCO2 [Compound 41] 15.0

State its ΔT1/2 c-Kit1: COc1ccc2cc3[n+](cc2c1OCCCn1cc(COc2ccc4ccc(=O)oc4c2)nn1)CCc1cc2c(cc1-3)OCO2 [Compound 34] 20.0

Return the recorded ΔT1/2 c-Kit1 value; entry: COc1ccc2cc3[n+](cc2c1OCCCCCn1cc(-c2ccc(S(N)(=O)=O)cc2)nn1)CCc1cc2c(cc1-3)OCO2 [Compound 32] 19.0

Read the entry COc1ccc2cc3[n+](cc2c1OCCCCn1cc(-c2ccc(S(N)(=O)=O)cc2)nn1)CCc1cc2c(cc1-3)OCO2 [Compound 30] and write its reported ΔT1/2 c-Kit1. 20.5

Look up and report measured ΔT1/2 c-Kit1 for this entry: COc1ccc2cc3[n+](cc2c1OCCCn1cc(-c2ccc(S(N)(=O)=O)cc2)nn1)CCc1cc2c(cc1-3)OCO2 [Compound 28] 16.5

Identify measured ΔT1/2 c-Kit1 associated with COc1ccc2cc3[n+](cc2c1OCCn1cc(COc2ccc(S(N)(=O)=O)cc2)nn1)CCc1cc2c(cc1-3)OCO2 [Compound 27] 18.5

Using the record for COc1ccc2cc3[n+](cc2c1OCCCS(N)(=O)=O)CCc1cc2c(cc1-3)OCO2 [Compound 47] , state its measured ΔT1/2 c-Kit1. 15.5

Give ΔT1/2 c-Kit1 for COc1ccc2cc3[n+](cc2c1OCCCCCn1cc(COc2ccc4ccc(=O)oc4c2)nn1)CCc1cc2c(cc1-3)OCO2 [Compound 39] 20.0

Give the reported value of ΔT1/2 c-Kit1 for this record: COc1ccc2cc3[n+](cc2c1OCCCCCn1cc(COc2ccc(S(N)(=O)=O)cc2)nn1)CCc1cc2c(cc1-3)OCO2 [Compound 33] 18.5

Identify measured ΔT1/2 c-Kit1 corresponding to COc1ccc2cc3[n+](cc2c1OCCCn1cc(CCCOc2ccc4ccc(=O)oc4c2)nn1)CCc1cc2c(cc1-3)OCO2 [Compound 36] 17.0

Quickly give me recorded ΔT1/2 c-Kit1 for COc1ccc2cc3[n+](cc2c1OCc1cn(-c2ccc4c(C)cc(=O)oc4c2)nn1)CCc1cc2c(cc1-3)OCO2 [Compound 45] 16.5

Give reported ΔT1/2 c-Kit1 value for COc1ccc2cc3[n+](cc2c1OCc1cn(CCCOc2ccc4ccc(=O)oc4c2)nn1)CCc1cc2c(cc1-3)OCO2 [Compound 42] 17.0

---

Record form. Attribute: Selectivity index (SI) I/IX. Fill in for each entry.
- Target Desc: hCA IX (Homo sapiens)
- Construct: made in house
- Measurement Description: stopped-flow CO2 hydrase assay, hCA IX
- Assay type: biochemical
- Applied Conditions: hCA IX over hCA I

Consider the molecule `COc1ccc2cc3[n+](cc2c1OCCCn1cc(CCCOc2ccc4ccc(=O)oc4c2)nn1)CCc1cc2c(cc1-3)OCO2` . State its measured Selectivity index (SI) I/IX. > 169.8

Specify measured Selectivity index (SI) I/IX for `COc1ccc2cc3[n+](cc2c1OCCCn1cc(-c2ccc(S(N)(=O)=O)cc2)nn1)CCc1cc2c(cc1-3)OCO2` . 1194

State its Selectivity index (SI) I/IX for this molecule: `COc1ccc2cc3[n+](cc2c1OCCCCCn1cc(-c2ccc(S(N)(=O)=O)cc2)nn1)CCc1cc2c(cc1-3)OCO2` 2390

Identify Selectivity index (SI) I/IX associated with the molecule `COc1ccc2cc3[n+](cc2c1OCCCCn1cc(-c2ccc(S(N)(=O)=O)cc2)nn1)CCc1cc2c(cc1-3)OCO2` 1209

Answer with reported Selectivity index (SI) I/IX of `COc1ccc2cc3[n+](cc2c1OCc1cn(-c2ccc(S(N)(=O)=O)cc2)nn1)CCc1cc2c(cc1-3)OCO2` 307.1

Using the record for `COc1ccc2cc3[n+](cc2c1OCc1cn(-c2ccc4c(C)cc(=O)oc4c2)nn1)CCc1cc2c(cc1-3)OCO2` , state its measured Selectivity index (SI) I/IX. > 194.2

---

Consider the following compounds; for each one, report its ΔT1/2 F-c-Kit1-T + Hairpin (1:15).
- Tested on: F-c-Kit1-T GQ
- Measurement Description: FRET melting competition experiments
- Type: binding
- Applied Conditions: 2 molar equiv ligand, 15 molar equiv unlabelled Hairpin
The reply should be a number in °C, with the unit left off.

Give recorded ΔT1/2 F-c-Kit1-T + Hairpin (1:15). COc1ccc2cc3[n+](cc2c1OCCCCn1cc(-c2ccc(S(N)(=O)=O)cc2)nn1)CCc1cc2c(cc1-3)OCO2 [Compound 30] 13.8

Specify measured ΔT1/2 F-c-Kit1-T + Hairpin (1:15) for COc1ccc2cc3[n+](cc2c1OCCCn1cc(COc2ccc(S(N)(=O)=O)cc2)nn1)CCc1cc2c(cc1-3)OCO2 [Compound 29] . 12.8

Return ΔT1/2 F-c-Kit1-T + Hairpin (1:15) for the following compound: COc1ccc2cc3[n+](cc2c1OCCn1cc(-c2ccc(S(N)(=O)=O)cc2)nn1)CCc1cc2c(cc1-3)OCO2 [Compound 26] 10.2

Give the measured ΔT1/2 F-c-Kit1-T + Hairpin (1:15) for COc1ccc2cc3[n+](cc2c1OCCCCCn1cc(COc2ccc4ccc(=O)oc4c2)nn1)CCc1cc2c(cc1-3)OCO2 [Compound 39] 13.2

Dear colleague, please send me the reported ΔT1/2 F-c-Kit1-T + Hairpin (1:15) for COc1ccc2cc3[n+](cc2c1OCCCCn1cc(COc2ccc4ccc(=O)oc4c2)nn1)CCc1cc2c(cc1-3)OCO2 [Compound 37] when you can. 12.8

Tell me ΔT1/2 F-c-Kit1-T + Hairpin (1:15) reported for COc1ccc2cc3[n+](cc2c1OCCCCCn1cc(-c2ccc(S(N)(=O)=O)cc2)nn1)CCc1cc2c(cc1-3)OCO2 [Compound 32] 15.0

Please report ΔT1/2 F-c-Kit1-T + Hairpin (1:15) for the following compound: COc1ccc2cc3[n+](cc2c1OCCCn1cc(COc2ccc4ccc(=O)oc4c2)nn1)CCc1cc2c(cc1-3)OCO2 [Compound 34] 11.4

These measurements were taken from paper PMC11195807.
